- Tested on: Escherichia coli
- stated_conditions: Concentration 32 ug.mL-1; ASSAY_TEST Inhibition of Bacterial Growth; detection method Absorption (OD600); MEDIA CAMHB; plate type 384well; NBS; CORNING #3640; time 18 hr
- Description: Antibacterial activity against Escherichia coli ATCC 25922 (CO-ADD:GN_001); MIC in CAMBH media using NBS plates, by OD(600)
Results with a measured potency or affinity are listed apart.
endpoint_label: Inhibition (%)
Use % as the unit, but write only the number.

Observed Inhibition on Escherichia coli for CN1C/C(=C\Cl)n2c1c(C#N)cc(C#N)c2=O , please.
-15.97

Observed Inhibition on Escherichia coli for N#Cc1c(N)nc(NCCCC2CCN(Cc3ccccc3)CC2)c(C#N)c1-c1ccccc1 , please.
-16.73

// below: Inhibition requested for another compound
Observed Inhibition on Escherichia coli for O=C1NC(=S)N/C1=C\c1c[nH]c2ccccc12 , please.
6.43

====

- Test system: Staphylococcus aureus
- stated_conditions: Concentration 32 ug.mL-1; ASSAY_TEST Inhibition of Bacterial Growth; detection method Absorption (OD600); MEDIA CAMHB; plate type 384well; NBS; CORNING #3640; time 18 hr
- Description: Antibacterial activity against Staphylococcus aureus MRSA ATCC 43300 (CO-ADD:GP_020); MIC in CAMBH media, using NBS plates, by OD(600)
Entries with a potency or affinity are not part of this list.
Inhibition reference
Note: state the figure and append the unit.

Some solved cases for reference:
Fill in the blank: the reported Inhibition of CCOC(=O)c1c(C)nc2nc3c(c(N)c2c1-c1ccc(OC)cc1)CCCCCC3 is ____.
3.19%

Fill in the blank: the reported Inhibition of CC(=O)Nc1nc(Cl)c(C#N)c(-c2ccccc2)c1C#N is ____.
21.15%

---
Fill in the blank: the reported Inhibition of N#C/C(=C\c1ccccc1)C(=O)c1ccccc1 is ____.
10.5%
